# Test summary: AUC (0 to last) in dog at 2 mg/kg, iv
# Type: ADME, organism-based, Canis lupus familiaris
# Details: in vivo
Readout label: AUC(0-t) (ng·h/mL)
# output: bare number, implied unit ng·h/mL

{"Line notation": "COC(=O)/C=C/C(=O)NNC(=O)CCc1ccccc1C(=O)N[C@H](C)c1cccc2ccccc12", "AUC(0-t), ng·h/mL": 315}

Consider the additional compound presented here.
Q: Report AUC(0-t) for CCOC(=O)/C=C/C(=O)NNC(=O)CCc1ccccc1C(=O)N[C@H](C)c1cccc(-c2cccs2)c1 please.
Ans: 362

----------
# Test summary: Intrinsic clearance in mouse liver microsomes
# Type: ADME, Microsome
# Details: read-out: CLH
Readout label: microsomal CLint (µL/min/mg)
Field: numeric (µL/min/mg). Do not append units.

{"Line notation": "COC(=O)/C=C/C(=O)NNC(=O)CCc1ccccc1C(=O)N[C@H](C)c1cccc2ccccc12", "microsomal CLint / µL/min/mg": 144}

// below: microsomal CLint requested for another compound
Q: What does the data say about its microsomal CLint? Entry: CCOC(=O)/C=C/C(=O)NNC(=O)CCc1ccccc1C(=O)N[C@H](C)c1cccc(-c2cccs2)c1
Ans: 618

----------
# Target under test: Replicase polyprotein 1ab (Severe acute respiratory syndrome coronavirus 2)
pIC50: −log10 of the molar value.
Binary call on pIC50: criterion met from 6 upward, criterion not met beneath that.

Q: Test whether the compound C[C@@H](NC(=O)c1ccccc1CCC(=O)NNC(=O)/C=C/C(=O)OC(C)(C)C)c1cccc2ccccc12 records pIC50 of 6 or higher.
Ans: criterion met

Q: What about this compound? C[C@@H](NC(=O)c1ccccc1CCC(=O)NNC(=O)/C=C/C#N)c1cccc2ccccc12
Ans: criterion not met

Q: Next: CNC(=O)/C=C/C(=O)NNC(=O)CCc1ccccc1C(=O)N[C@H](C)c1cccc2ccccc12
Ans: criterion not met

Q: Proceed to COC(=O)/C=C/C(=O)NNC(=O)CCc1ccccc1C(=O)N[C@H](C)c1cccc(-c2cn[nH]c2)c1
Ans: criterion met

Q: Ok, now C[C@@H](NC(=O)c1ccccc1CCC(=O)NNC(=O)/C=C/C(=O)OCC1CCCC1)c1cccc2ccccc12
Ans: criterion not met

Q: Next record, please: C[C@@H](NC(=O)c1ccccc1CCC(=O)NNC(=O)/C=C/C(=O)OCc1ncccn1)c1cccc2ccccc12
Ans: criterion met

Q: // query: C[C@@H](NC(=O)c1ccccc1CCC(=O)NNC(=O)/C=C/C(=O)OCCC(F)(F)F)c1cccc2ccccc12
Ans: criterion met

Q: Also C[C@@H](NC(=O)c1ccccc1CCC(=O)NNC(=O)/C=C/C(=O)O)c1cccc2ccccc12 ?
Ans: criterion not met

----------
# fraction unbound values compiled below
# Test summary: Plasma protein binding in human
# Format: ADME, cell-free
# Details: read-out: PPB (converted)

{"Line notation": "CCOC(=O)/C=C/C(=O)NNC(=O)CCc1ccccc1C(=O)N[C@H](C)c1cccc(-c2cccs2)c1", "Readout label": "fraction unbound", "Measured result": 0.014}

Now for another entry.
Q: Please look up its fraction unbound: COC(=O)/C=C/C(=O)NNC(=O)CCc1ccccc1C(=O)N[C@H](C)c1cccc2ccccc12
Ans: 0.049

----------
Each record here notes measured MRT last.
# Test summary: MRT (0 to last) in dog at 20 mg/kg, po
# Assay type: ADME, organism-based, Canis lupus familiaris
# Details: in vivo
Write the number in h without appending the unit.

{"Line notation": "CCOC(=O)/C=C/C(=O)NNC(=O)CCc1ccccc1C(=O)N[C@H](C)c1cccc(-c2cccs2)c1", "Measured result": 2.94}

Please examine the following record next.
Q: Reported MRT last for COC(=O)/C=C/C(=O)NNC(=O)CCc1ccccc1C(=O)N[C@H](C)c1cccc2ccccc12 : what is it?
Ans: 1.62

----------
# Test summary: Half life in dog at 20 mg/kg, po
# Assay type: ADME, organism-based, Canis lupus familiaris
# Details: in vivo
Readout label: half-life (h)
Give a bare numeral; the unit h is implied.

{"Line notation": "CCOC(=O)/C=C/C(=O)NNC(=O)CCc1ccccc1C(=O)N[C@H](C)c1cccc(-c2cccs2)c1", "half-life, h": 2.62}

Turning now to a further record.
Q: // half-life lookup, key: COC(=O)/C=C/C(=O)NNC(=O)CCc1ccccc1C(=O)N[C@H](C)c1cccc2ccccc12
Ans: 1.21

----------
# Test summary: AUC (0 to last) in dog at 20 mg/kg, po
# Format: ADME, organism-based, Canis lupus familiaris
# Details: in vivo
Readout label: AUC(0-t) (ng·h/mL)
Give the quantity in ng·h/mL, number only.

{"Line notation": "COC(=O)/C=C/C(=O)NNC(=O)CCc1ccccc1C(=O)N[C@H](C)c1cccc2ccccc12", "Measured result": 91}

Please look at the following molecule next.
Q: Recorded AUC(0-t) of CCOC(=O)/C=C/C(=O)NNC(=O)CCc1ccccc1C(=O)N[C@H](C)c1cccc(-c2cccs2)c1 , please.
Ans: 62

----------
# Test summary: Cmax in dog at 20 mg/kg, po
# Format: ADME, organism-based, Canis lupus familiaris
# Details: in vivo
Readout label: Cmax (ng/mL)
Express the result in ng/mL but write the number alone.

{"Line notation": "CCOC(=O)/C=C/C(=O)NNC(=O)CCc1ccccc1C(=O)N[C@H](C)c1cccc(-c2cccs2)c1", "Measured result": 20}

Consider the record given below.
Q: Quick one: Cmax for COC(=O)/C=C/C(=O)NNC(=O)CCc1ccccc1C(=O)N[C@H](C)c1cccc2ccccc12 ?
Ans: 84

----------
# Test summary: Clearance in dog at 20 mg/kg, po
# Assay type: ADME, organism-based, Canis lupus familiaris
# Details: in vivo
Measured CL/F, listed per entry.
Numbers only; they are read as L/h/kg.

{"Line notation": "COC(=O)/C=C/C(=O)NNC(=O)CCc1ccccc1C(=O)N[C@H](C)c1cccc2ccccc12", "Measured result": 223}

Q: Dear colleague, I am looking for the recorded CL/F of the following compound: CCOC(=O)/C=C/C(=O)NNC(=O)CCc1ccccc1C(=O)N[C@H](C)c1cccc(-c2cccs2)c1
Ans: 306

----------
# Test summary: Cytotoxicity against human A549-ACE2 cells assessed as reduction in cell viability
# Type: toxicity, cell-based
# Details: a549-ace2
Decide using CC50 alone. Strictly below 60 µM: true (1). Equal to or above 60 µM: false (0).

# count of solved cases: 5
{"Line notation": "C[C@@H](NC(=O)c1ccccc1CCC(=O)NNC(=O)/C=C/C(=O)OCc1ccc2ccccc2n1)c1cccc2ccccc12", "Assigned category": "true (1)"}
{"Line notation": "C[C@@H](NC(=O)c1ccccc1CCC(=O)NNC(=O)/C=C/C(=O)OC1CCC1)c1cccc2ccccc12", "Assigned category": "false (0)"}
{"Line notation": "CCOC(=O)/C=C/C(=O)NNC(=O)CCc1ccccc1C(=O)N[C@H](C)c1cccc2ccccc12", "Assigned category": "true (1)"}
{"Line notation": "CC#CC(=O)NNC(=O)CCc1ccccc1C(=O)N[C@H](C)c1cccc2ccccc12", "Assigned category": "false (0)"}
{"Line notation": "C[C@@H](NC(=O)c1ccccc1CCC(=O)NNC(=O)/C=C/C(=O)OCc1ccccc1)c1cccc2ccccc12", "Assigned category": "false (0)"}

Here is the next item to consider.
Q: Check if CC50 falls below 60 µM for COC(=O)/C=C/C(=O)NNC(=O)CCc1ccccc1C(=O)N[C@H](C)c1cccc(C2=CCOCC2)c1 .
Ans: true (1)
